The reported numbers originate from the supplement of paper PMC10724198.

# System: Saccharomyces cerevisiae;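 note: PSI is a weighted mean of sequencing reads over stability bins, variants kept only with over 10 reads, mCherry proximal and sfGFP distal, peptide attached via GGGS linker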
# experimental.protocol: protein stability index of tFT-peptide fusion (C-terminal peptide) (PSI (0-1 scale)); higher = more stable (slower turnover)
# run.parameters: genetic background: wild type; temperature: 30 C

>  <residue.codes>
QTATIKGTLIAM

>  <protein stability index>
0.585

$$$$
>  <residue.codes>
SKGSVFGNMGYR

>  <protein stability index>
0.674

$$$$
>  <residue.codes>
AGSAAGGAWSGG

>  <protein stability index>
0.695

$$$$
>  <residue.codes>
LLWPSPAISLPT

>  <protein stability index>
0.722

$$$$
>  <residue.codes>
FLLVHIFSLFCL

>  <protein stability index>
0.547

$$$$
